# assayed.system: feline FcRn complex (FcRn-α subunit and β-microglobulin), biotin labeled (feline)
# test.summary: SPR, pH 6
measured.quantity: Kd (nM)
Write it as a number; the unit nM goes unstated.

Report Kd, nothing else, for this binder: feline IgG1a A378N (antibody, part only; not given: variable domains and light chain, not shown: another chain or arm of the molecule) constant: ASTTAPSVFPLAPSCGTTSGATVALACLVLGYFPEPVTVSWNSGALTSGVHTFPAVLQASGLYSLSSMVTVPSSRWLSDTFTCNVAHPPSNTKVDKTVRKTDHPPGPKPCDCPKCPPPEMLGGPSIFIFPPKPKDTLSISRTPEVTCLVVDLGPDDSDVQITWFVDNTQVYTAKTSPREEQFNSTYRVVSVLPILHQDWLKGKEFKCKVNSKSLPSPIERTISKAKGQPHEPQVYVLPPAQEELSRNKVSVTCLIKSFHPPDINVEWEITGQPEPENNYRTTPPQLDSDGTYFVYSKLSVDRSHWQRGNTYTCSVSHEALHSHHTQKSLTQSPGK
28.6

Report Kd, nothing else, for this binder: feline IgG1a S254F (antibody, part only; not given: Variable domains, not shown: another chain or arm of the molecule) constant: ASTTAPSVFPLAPSCGTTSGATVALACLVLGYFPEPVTVSWNSGALTSGVHTFPAVLQASGLYSLSSMVTVPSSRWLSDTFTCNVAHPPSNTKVDKTVRKTDHPPGPKPCDCPKCPPPEMLGGPSIFIFPPKPKDTLSIFRTPEVTCLVVDLGPDDSDVQITWFVDNTQVYTAKTSPREEQFNSTYRVVSVLPILHQDWLKGKEFKCKVNSKSLPSPIERTISKAKGQPHEPQVYVLPPAQEELSRNKVSVTCLIKSFHPPDIAVEWEITGQPEPENNYRTTPPQLDSDGTYFVYSKLSVDRSHWQRGNTYTCSVSHEALHSHHTQKSLTQSPGK
568

Report Kd, nothing else, for this binder: feline IgG1a S252C (antibody, part only; not given: Variable domains, not shown: another chain or arm of the molecule; small tags and cut ends) constant: ASTTAPSVFPLAPSCGTTSGATVALACLVLGYFPEPVTVSWNSGALTSGVHTFPAVLQASGLYSLSSMVTVPSSRWLSDTFTCNVAHPPSNTKVDKTVRKTDHPPGPKPCDCPKCPPPEMLGGPSIFIFPPKPKDTLCISRTPEVTCLVVDLGPDDSDVQITWFVDNTQVYTAKTSPREEQFNSTYRVVSVLPILHQDWLKGKEFKCKVNSKSLPSPIERTISKAKGQPHEPQVYVLPPAQEELSRNKVSVTCLIKSFHPPDIAVEWEITGQPEPENNYRTTPPQLDSDGTYFVYSKLSVDRSHWQRGNTYTCSVSHEALHSHHTQKSLTQSPGK
922

---
Report Kd, nothing else, for this binder: feline IgG1a S252T (antibody, part only; not given: Variable domains, not shown: another chain or arm of the molecule) constant: ASTTAPSVFPLAPSCGTTSGATVALACLVLGYFPEPVTVSWNSGALTSGVHTFPAVLQASGLYSLSSMVTVPSSRWLSDTFTCNVAHPPSNTKVDKTVRKTDHPPGPKPCDCPKCPPPEMLGGPSIFIFPPKPKDTLTISRTPEVTCLVVDLGPDDSDVQITWFVDNTQVYTAKTSPREEQFNSTYRVVSVLPILHQDWLKGKEFKCKVNSKSLPSPIERTISKAKGQPHEPQVYVLPPAQEELSRNKVSVTCLIKSFHPPDIAVEWEITGQPEPENNYRTTPPQLDSDGTYFVYSKLSVDRSHWQRGNTYTCSVSHEALHSHHTQKSLTQSPGK
1190
